The origin of these recorded values is patent US12673022B2.

- Test system: EGFP reporter cells (C2C12 cells)
- methodDescription: Number of HOECHST cells detected (cell viability) in the EGFP-SSA assay
- runParameters: Example 1; compound 200.0 mM vs 250 mM GABA positive control on the same plate; formula (2)
Examples of molecules with documented Relative ratio to GABA: Number of HOECHST cells follow.
When you answer, write just the number.

Below: 3 molecules and their reported Relative ratio to GABA: Number of HOECHST cells.
CN1CC(=O)NC1=N
0.84
NCCCC(=O)O [GABA, γ-aminobutyric acid, reference compound]
1.00
CC(C)C(=O)C(=O)O [Sodium 3-methyl-2-oxobutate]
0.53

Please turn your attention to the following entry.
Suppose we examine the molecule OC[C@H]1O[C@@H](O[C@H]2[C@H](O)[C@@H](O)[C@H](O)O[C@@H]2CO)[C@H](O)[C@@H](O)[C@@H]1O [D(+)-cellobiose] ; what Relative ratio to GABA: Number of HOECHST cells value has been reported?
1.00

###

- Tested on: EGFP reporter cells (C2C12 cells)
- methodDescription: Number of HOECHST cells detected (cell viability) in the EGFP-SSA assay
- runParameters: Example 1; compound 250.0 mM vs 250 mM GABA positive control on the same plate; formula (2)
quantityMeasured: Relative ratio to GABA: Number of HOECHST cells

Worked examples follow.
O=C(O)CCC(O)C(=O)O (stereo not drawn) [2-Hydroxyglutaric acid]
0.83
O=CC[C@@H](O)[C@H](O)[C@H](O)COP(=O)(O)O [Oxy-D-glucose-6-phosphate, 2-deoxy-D-glucose-6-phosphate]
1.06
O=P(O)(O)O[C@H]1O[C@H](CO)[C@@H](O)[C@H](O)[C@H]1O [α-D-Glucose-1-phosphate]
1.29
Cn1cnc(C[C@H](N)C(=O)O)c1
0.68
NC(=O)N[C@@H](CC(=O)O)C(=O)O
1.19

Below: the item to evaluate.
I would be grateful if you could share the reported Relative ratio to GABA: Number of HOECHST cells for O=C(O)[C@H](O)[C@@H](O)[C@H](O)[C@H](O)COP(=O)(O)O .
1.31
